# credit: the supplement of paper PMC5998384

# Test system: HeLa Kyoto;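 also: synchronized HeLa Kyoto cells, proteins quantified by TMT10plex mass spectrometry, three biological replicates, mitosis taken 0.5 h after nocodazole release, G1/S directly after double thymidine block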
# assay-info: thermal stability score vs G1/S (z-score of summed log2 fold changes over temperatures); higher = more thermally stable than in G1/S
# condition: cell cycle stage: mitosis
Decision: thermal stability score compared against -1; not below it gives T, below it gives F.

>>> class_name("MKAVVQRVTRASVTVGGEQISAIGRGICVLLGISLEDTQKELEHMVRKILNLRVFEDESGKHWSKSVMDKQYEILCVSQFTLQCVLKGNKPDFHLAMPTEQAEGFYNSFLEQLRKTYRPELIKDGKFGAYMQVHIQNDGPVTIELESPAPGTATSDPKQLSKLEKQQQRKEKTRAKGPSESSKERNTPRKEDRSASSGAEGDVSSEREP [DTD1]")
"T"
>>> class_name("MLLLTRSPTAWHRLSQLKPRVLPGTLGGQALHLRSWLLSRQGPAETGGQGQPQGPGLRTRLLITGLFGAGLGGAWLALRAEKERLQQQKRTEALRQAAVGQGDFHLLDHRGRARCKADFRGQWVLMYFGFTHCPDICPDELEKLVQVVRQLEAEPGLPPVQPVFITVDPERDDVEAMARYVQDFHPRLLGLTGSTKQVAQASHSYRVYYNAGPKDEDQDYIVDHSIAIYLLNPDGLFTDYYGRSRSAEQISDSVRRHMAAFRSVLS [SCO2]")
"T"
>>> class_name("MAAAEAGGDDARCVRLSAERAQALLADVDTLLFDCDGVLWRGETAVPGAPEALRALRARGKRLGFITNNSSKTRAAYAEKLRRLGFGGPAGPGASLEVFGTAYCTALYLRQRLAGAPAPKAYVLGSPALAAELEAVGVASVGVGPEPLQGEGPGDWLHAPLEPDVRAVVVGFDPHFSYMKLTKALRYLQQPGCLLVGTNMDNRLPLENGRFIAGTGCLVRAVEMAAQRQADIIGKPSRFIFDCVSQEYGINPERTVMVGDRLDTDILLGATCGLKTILTLTGVSTLGDVKNNQESDCVSKKKMVPDFYVDSIADLLPALQG [PGP]")
"F"
>>> class_name("MLVVEVANGRSLVWGAEAVQALRERLGVGGRTVGALPRGPRQNSRLGLPLLLMPEEARLLAEIGAVTLVSAPRPDSRHHSLALTSFKRQQEESFQEQSALAAEARETRRQELLEKITEGQAAKKQKLEQASGASSSQEAGSSQAAKEDETSDGQASGEQEEAGPSSSQAGPSNGVAPLPRSALLVQLATARPRPVKARPLDWRVQSKDWPHAGRPAHELRYSIYRDLWERGFFLSAAGKFGGDFLVYPGDPLRFHAHYIAQCWAPEDTIPLQDLVAAGRLGTSVRKTLLLCSPQPDGKVVYTSLQWASLQ [TSEN34]")
"T"
>>> class_name("MLGGSLGSRLLRGVGGSHGRFGARGVREGGAAMAAGESMAQRMVWVDLEMTGLDIEKDQIIEMACLITDSDLNILAEGPNLIIKQPDELLDSMSDWCKEHHGKSGLTKAVKESTITLQQAEYEFLSFVRQQTPPGLCPLAGNSVHEDKKFLDKYMPQFMKHLHYRIIDVSTVKELCRRWYPEEYEFAPKKAASHRALDDISESIKELQFYRNNIFKKKIDEKKRKIIENGENEKTVS [REXO2]")
"F"
>>> class_name("MSAKDERAREILRGFKLNWMNLRDAETGKILWQGTEDLSVPGVEHEARVPKKILKCKAVSRELNFSSTEQMEKFRLEQKVYFKGQCLEEWFFEFGFVIPNSTNTWQSLIEAAPESQMMPASVLTGNVIIETKFFDDDLLVSTSRVRLFYV [PDE6D]")
"T"
